# System Name: h-DHODH (Homo sapiens)
# Construct: endogenous in cells
# Sequence (Q02127 whole entry): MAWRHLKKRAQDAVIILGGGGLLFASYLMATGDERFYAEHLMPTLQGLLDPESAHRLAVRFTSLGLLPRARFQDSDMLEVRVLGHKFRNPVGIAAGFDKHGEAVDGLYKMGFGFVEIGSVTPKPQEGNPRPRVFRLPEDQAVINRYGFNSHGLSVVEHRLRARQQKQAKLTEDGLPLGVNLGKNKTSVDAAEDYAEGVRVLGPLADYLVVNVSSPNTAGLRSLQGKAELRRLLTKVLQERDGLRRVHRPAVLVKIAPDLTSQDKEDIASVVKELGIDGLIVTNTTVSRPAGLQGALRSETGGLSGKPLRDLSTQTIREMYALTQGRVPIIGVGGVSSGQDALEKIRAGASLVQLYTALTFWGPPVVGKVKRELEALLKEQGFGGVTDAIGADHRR
# Experiment: Dihydro-orotate dehydrogenase inhibition assay (U937 membrane preparations, DCIP reduction)
# Condition Notes: U937 membrane preparation
Entries and their IC50 values follow.
Kindly provide the numeric value in nM only, without the unit symbol.

Example entries begin here.
Ask: Quote IC50 with test system h-DHODH (Homo sapiens) for "CC(C)COc1cccc(-c2cc(F)c(NC(=O)c3ccccc3C(=O)O)c(F)c2)c1"
Reply: 62.5

Ask: Quote IC50 with test system h-DHODH (Homo sapiens) for "O=C(O)c1cc(Cl)c(Cl)cc1C(=O)Nc1c(F)cc(-c2ccccc2Cl)cc1Cl"
Reply: 147

Ask: Quote IC50 with test system h-DHODH (Homo sapiens) for "CCOc1cccc(-c2cc(F)c(NC(=O)c3ccccc3C(=O)O)c(Cl)c2)c1"
Reply: 129

Ask: Quote IC50 with test system h-DHODH (Homo sapiens) for "O=C(O)c1ccccc1C(=O)Nc1c(F)cc(-c2cccc(OC(F)F)c2)cc1Cl"
Reply: 90.6

***
Ask: Quote IC50 with test system h-DHODH (Homo sapiens) for "O=C(O)c1ccccc1C(=O)Nc1c(F)cc(-c2cccc(OCc3ccccc3)c2)cc1F"
Reply: 150
